Study Target: acetylcholine receptor
Method Description: SPR, AchR immobilised on CM5 chip, peptide 10 uM
Metric: Binding affinity (RU)
Please provide the amount together with its unit, number first.

KKNCDK [6mer-1-962]	42 RU
KKTAFK [6mer-1-1018]	28 RU
KIDVRK [6mer-2-714]	30 RU
KAEWRK [6mer-2-784]	26 RU

RDMVRK [6mer-2-783] has a reported Binding affinity (RU) of 32 RU

binder RMPEKR [6mer-2-654] , Binding affinity (RU) observed: 20 RU
